For each entry below, report its shrunken log2 fold change value.
- System: Escherichia coli TOP10;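 note: peptides expressed intracellularly from a pBAD plasmid library in pooled LB shake-flask culture, induced with 0.3% L-arabinose, DNA abundance read by NGS, three biological replicates, DESeq2 with apeglm shrinkage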
- measurement description: shrunken log2 fold change of peptide-encoding DNA abundance (4.5 h post-induction vs induction); higher = less antimicrobial activity (less host growth inhibition)
- test context: time post-induction: 4.5 h; library: site-saturation at positions 5, 18, 19, 20
Give your answer as a number; write no unit.

Inquiry: Specify measured shrunken log2 fold change for RRIRERPPRLPRPRPRPFPKPRP .
Reply text: 0.459

Inquiry: Specify measured shrunken log2 fold change for RRIRRRPPRLPRPRPRPPLRPRP .
Reply text: 0.964

Inquiry: Specify measured shrunken log2 fold change for RRIRNRPPRLPRPRPRPFNWPRP .
Reply text: -0.123

Inquiry: Specify measured shrunken log2 fold change for RRIRYRPPRLPRPRPRPIMKPRP .
Reply text: 0.0367

Inquiry: Specify measured shrunken log2 fold change for RRIRGRPPRLPRPRPRPINEPRP .
Reply text: 0.0939

Inquiry: Specify measured shrunken log2 fold change for RRIRERPPRLPRPRPRPLHPPRP .
Reply text: 0.309

Inquiry: Specify measured shrunken log2 fold change for RRIRPRPPRLPRPRPRPSEWPRP .
Reply text: 0.0522

Inquiry: Specify measured shrunken log2 fold change for RRIRHRPPRLPRPRPRPIWQPRP .
Reply text: -0.123

Inquiry: Specify measured shrunken log2 fold change for RRIRGRPPRLPRPRPRPGLNPRP .
Reply text: 4.08

Inquiry: Specify measured shrunken log2 fold change for RRIRPRPPRLPRPRPRPWHDPRP .
Reply text: -0.112

Inquiry: Specify measured shrunken log2 fold change for RRIRPRPPRLPRPRPRPGTWPRP .
Reply text: 0.0893

Inquiry: Specify measured shrunken log2 fold change for RRIRPRPPRLPRPRPRPGNWPRP .
Reply text: 0.0527

Inquiry: Specify measured shrunken log2 fold change for RRIRFRPPRLPRPRPRPDSDPRP .
Reply text: -0.0137

Inquiry: Specify measured shrunken log2 fold change for RRIRHRPPRLPRPRPRPPNLPRP .
Reply text: 0.189

Inquiry: Specify measured shrunken log2 fold change for RRIRYRPPRLPRPRPRPLCHPRP .
Reply text: -1.18

Inquiry: Specify measured shrunken log2 fold change for RRIRNRPPRLPRPRPRPPHFPRP .
Reply text: 0.0188

Inquiry: Specify measured shrunken log2 fold change for RRIRVRPPRLPRPRPRPYSVPRP .
Reply text: -0.265

Inquiry: Specify measured shrunken log2 fold change for RRIRHRPPRLPRPRPRPSDKPRP .
Reply text: -0.355

Inquiry: Specify measured shrunken log2 fold change for RRIRERPPRLPRPRPRPYMLPRP .
Reply text: -1.42

Inquiry: Specify measured shrunken log2 fold change for RRIRMRPPRLPRPRPRPWISPRP .
Reply text: 0.00707

Inquiry: Specify measured shrunken log2 fold change for RRIRTRPPRLPRPRPRPCFPPRP .
Reply text: -0.141

Inquiry: Specify measured shrunken log2 fold change for RRIRDRPPRLPRPRPRPEGWPRP .
Reply text: 1.78

Inquiry: Specify measured shrunken log2 fold change for RRIRNRPPRLPRPRPRPWRVPRP .
Reply text: 0.515

Inquiry: Specify measured shrunken log2 fold change for RRIRRRPPRLPRPRPRPMGIPRP .
Reply text: 0.0313

Inquiry: Specify measured shrunken log2 fold change for RRIRQRPPRLPRPRPRPDNLPRP .
Reply text: -0.348

Inquiry: Specify measured shrunken log2 fold change for RRIRERPPRLPRPRPRPYFRPRP .
Reply text: -0.622

Inquiry: Specify measured shrunken log2 fold change for RRIRDRPPRLPRPRPRPVHFPRP .
Reply text: 0.033

Inquiry: Specify measured shrunken log2 fold change for RRIRKRPPRLPRPRPRPTTSPRP .
Reply text: 0.321

Inquiry: Specify measured shrunken log2 fold change for RRIRIRPPRLPRPRPRPYWMPRP .
Reply text: -0.379

Inquiry: Specify measured shrunken log2 fold change for RRIRKRPPRLPRPRPRPVQFPRP .
Reply text: -0.0421

Inquiry: Specify measured shrunken log2 fold change for RRIRPRPPRLPRPRPRPMMGPRP .
Reply text: 0.0538

Inquiry: Specify measured shrunken log2 fold change for RRIRNRPPRLPRPRPRPVVPPRP .
Reply text: 0.0751

Inquiry: Specify measured shrunken log2 fold change for RRIRGRPPRLPRPRPRPSVIPRP .
Reply text: 0.159

Inquiry: Specify measured shrunken log2 fold change for RRIRLRPPRLPRPRPRPMGWPRP .
Reply text: 0.203

Inquiry: Specify measured shrunken log2 fold change for RRIRWRPPRLPRPRPRPVKFPRP .
Reply text: 0.0171

meta.source: the supplement of paper PMC9112550
